target_entity: T1, 6His-AviTag-linked cynomolgus monkey IL-33 (residues 112 to 269) (cynomolgus monkey, UniProt O95760 112-269 (human entry), biotin on the AviTag portion (BirA) in the SPR of Example 7; used without biotinylation in Example 10)
T1 construct: GenBank EHH57404 printed; also called cynomolgus monkey IL-33 protein; mature cynomolgus monkey IL-33
T1 chain: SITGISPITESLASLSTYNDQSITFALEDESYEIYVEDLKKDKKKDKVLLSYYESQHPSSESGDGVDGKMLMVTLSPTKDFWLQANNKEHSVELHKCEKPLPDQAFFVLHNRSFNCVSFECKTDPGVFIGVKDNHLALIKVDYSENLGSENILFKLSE
assay_remarks: SPR, IL-33 on chip, Fab supernatant as analyte
Let's look at some binders and their measured Cynomolgus Monkey IL-33 Binding Amount (RU).
Numeric only. Scale: RU

Before answering, review these 4 worked examples.
QUERY: Identify measured Cynomolgus Monkey IL-33 Binding Amount (RU) associated with A28-2F01 (Fab) (Fab, V domains shown, Fab secreted by E. coli, tested as culture supernatant; also called V26) VH: EVQLLESGGGLVQPGGSLRLSCAASGFTFSNYYMHWVRQAPGKGLEWVSSISSRSSHQYYAGSVKGRFTISRDNSKNTLYLQMNSLRAEDTAVYYCARLGLRHDAFDIWGQGTLVTVSS VL: QSVLTQPPSASGTPGQRVTISCSGSSSNIGHNAVWWYQQLPGTAPKLLIYASNMRRMGVPDRFSGSKSGTSASLAISGLRSEDEADYYCAAWDDSQKAVVFGGGTKLTVL
RESULT: 258

QUERY: Identify measured Cynomolgus Monkey IL-33 Binding Amount (RU) associated with A25-2H11 (Fab) (Fab, V domains shown, Fab secreted by E. coli, tested as culture supernatant; also called V14) VH: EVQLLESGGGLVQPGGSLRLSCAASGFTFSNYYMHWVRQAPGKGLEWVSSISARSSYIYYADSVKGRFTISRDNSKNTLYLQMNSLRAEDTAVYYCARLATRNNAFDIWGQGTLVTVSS VL: QSVLTQPPSASGTPGQRVTISCSGSSSNIGSNAVSWYQQLPGTAPKLLIYASNMRGSGVPDRFSGSKSGTSASLAISGLRSEDEADYYCAAWDDSQKVVVFGGGTKLTVL
RESULT: 492

QUERY: Identify measured Cynomolgus Monkey IL-33 Binding Amount (RU) associated with A13-1F07 (Fab) (Fab, V domains shown, Fab secreted by E. coli, tested as culture supernatant; also called V6) VH: EVQLLESGGGLVQPGGSLRLSCAASGFTFSVYYMNWVRQAPGKGLEWVSSISRYSGYVYYADSVKGRFTISRDNSKNTLYLQMNSLRAEDTAVYYCARDIGGMDVWGQGTLVTVSS VL: QSVLTQPPSASGTPGQRVTISCTGSSSNIGAVYNVHWYQQLPGTAPKLLIYRNNQRPSGVPDRFSGSKSGTSASLAISGLRSEDEADYYCQSYDSRRWVFGGGTKLTVL
RESULT: 151

QUERY: Identify measured Cynomolgus Monkey IL-33 Binding Amount (RU) associated with A13-1G05 (Fab) (Fab, V domains shown, Fab secreted by E. coli, tested as culture supernatant; also called V7) VH: EVQLLESGGGLVQPGGSLRLSCAASGFTFSDYYVNWVRQAPGKGLEWVSSISRYSGYVYYADSVKGRFTISRDNSKNTLYLQMNSLRAEDTAVYYCARDIGGMDVWGQGTLVTVSS VL: QSVLTQPPSASGTPGQRVTISCTGSSSNIGAVYNVHWYQQLPGTAPKLLIYRNNQRPSGVPDRFSGSKSGTSASLAISGLRSEDEADYYCQSYDSSRWVFGGGTKLTVL
RESULT: 80

Continuing:
QUERY: Identify measured Cynomolgus Monkey IL-33 Binding Amount (RU) associated with A25-2C02 (Fab) (Fab, V domains shown, Fab secreted by E. coli, tested as culture supernatant; also called V15) VH: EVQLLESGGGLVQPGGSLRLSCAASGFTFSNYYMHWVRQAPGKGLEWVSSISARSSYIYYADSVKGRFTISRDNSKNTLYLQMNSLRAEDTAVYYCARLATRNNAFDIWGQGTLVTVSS VL: QSVLTQPPSASGTPGQRVTISCSGSSSNIGRNAVNWYQQLPGTAPKLLIYASNMRVSGVPDRFSGSKSGTSASLAISGLRSEDEADYYCWAWDDSQKVGVFGGGTKLTVL
RESULT: 839
